Test system: B. mel. ss. intermedius
Type: biochemical
condition.info: strain ATCC 25261; β-naphthylamine liberated after 60 minutes, 37° C.
Peptide text beside a SMILES is read from it. * marks the point of attachment. βNA = c1ccc2cc(N*)ccc2c1
Recorded Aminopeptidase activity values for a group of compounds are listed next.
Enter the number, and then the unit.

Examples with their reported Aminopeptidase activity follow.
Cl.N=C(N)NCCC[C@H](NC(=O)CNC(=O)CNC(=O)OCc1ccccc1)C(=O)Nc1ccc2ccccc2c1 [N-CBz-Gly-Gly-Arg]	0 nmol
CC(C)C[C@H](N)C(=O)NCC(=O)O [Leu-Gly, Leucyl-glycine] (H-Leu-Gly-OH)	9 nmol
NC(=O)[C@@H](N)CCC(=O)O [α-Glu, α -glutamine]	0 nmol
CC(C)C[C@H](NC(=O)[C@@H]1CCCN1C(=O)CN)C(=O)Nc1ccc2ccccc2c1 [Gly-Pro-Leu] (H-Gly-Pro-Leu-βNA)	1 nmol

Indicate the recorded Aminopeptidase activity value for this compound: C[C@H](N)C(=O)N[C@@H](C)C(=O)N[C@@H](Cc1ccccc1)C(=O)Nc1ccc2ccccc2c1 [Ala-Ala-Phe] (H-Ala-Ala-Phe-βNA)
0 nmol

Write down Aminopeptidase activity measured for item CSCCC(N)C(=O)Nc1ccc2ccccc2c1 (racemic)
0 nmol

---

System: Capnocytophaga sp.
Format: biochemical
Description: The enzyme activity was measured by the chromogenic properties of N-CBz-glycyl-glycyl-L-arginine-β-naphthylamide which upon hydrolysis gives a visible color. The aminopeptidase activities listed in the table reflect the nanomoles of β-naphthylamine liberated after 60 minutes under the conditions described below. […]
Peptide text beside a SMILES is read from it.
measured.endpoint: Aminopeptidase activity

Field: example entries. Status: answers known.
N=C(N)NCCC[C@H](NC(=O)[C@@H](N)CCCNC(=N)N)C(=O)O [Arg-Arg, Arginyl-arginine] (H-Arg-Arg-OH)	0
N=C(N)NCCC[C@H](NC(=O)CN)C(=O)O [Gly-Arg, Glycyl-arginine] (H-Gly-Arg-OH)	20
NCCCC[C@H](N)C(=O)N1CCC[C@H]1C(=O)O [Lys-Pro, Lysyl-proline] (H-Lys-Pro-OH)	35
C[C@H](NC(=O)[C@@H](N)CCCCN)C(=O)O [Lys-Ala, Lysyl-alanine] (H-Lys-Ala-OH)	14

# ---- query compound ----
Item NCC(=O)N1CCC[C@H]1C(=O)O [Gly-Pro, Glycyl-proline] (H-Gly-Pro-OH) : provide Aminopeptidase activity
2

---

Tested on: Capnocytophaga gingivalis
Assay type: biochemical
Peptide text beside a SMILES is read from it.
Label T for high-side Aminopeptidase activity (at or above 60) and F for low-side Aminopeptidase activity (below it).

A selection of reference data follows.
N=C(N)NCCC[C@H](NC(=O)[C@@H](N)CCCNC(=N)N)C(=O)O [Arg-Arg, Arginyl-arginine] (H-Arg-Arg-OH)	T
N=C(N)NCCC[C@H](NC(=O)CN)C(=O)O [Gly-Arg, Glycyl-arginine] (H-Gly-Arg-OH)	F

Determine whether measured Aminopeptidase activity meets or exceeds 60 for C[C@H](NC(=O)[C@@H](N)CCCCN)C(=O)O [Lys-Ala, Lysyl-alanine] (H-Lys-Ala-OH)
F

Does NCC(=O)N1CCC[C@H]1C(=O)O [Gly-Pro, Glycyl-proline] (H-Gly-Pro-OH) have a reported Aminopeptidase activity of at least 60?
F

Is the recorded value of Aminopeptidase activity equal to or greater than 60 for this compound? NCCCC[C@H](N)C(=O)N1CCC[C@H]1C(=O)O [Lys-Pro, Lysyl-proline] (H-Lys-Pro-OH)
T
